System: MDA-MB-468 breast
Method summary: NCI-60 one-dose screen, 48 h
Recorded conditions: 10 µM unless noted
The panel holds about 83,000 compounds, 20% with a hit somewhere; the sample as a whole holds those more often. Active and inactive are the calls of the source. The calls were made as follows: active = growth percent below 10; inactive = the rest.
Return exactly one item of active, inactive

Study these solved cases before continuing.
>>> assigned_category("COc1ccc(S(=O)(=O)NCCNc2nccc(-c3c(-c4ccccc4)nc4sccn34)n2)cc1")
"inactive"
>>> assigned_category("COc1cc(-c2cc3cnccc3c3nc(N)c4ccncc4c23)cc(OC)c1OC")
"active"

Lab note: next compound to report on.
**Q:** Kindly provide the recorded test outcome for the following compound: O=C1CCC(C(=O)NCCNCCNC(=O)C2CCC(=O)N2)N1 (stereo unspecified)
**A:** inactive

###

System: MDA-MB-468 breast
Method summary: NCI-60 one-dose screen, 48 h
Recorded conditions: 10 µM unless noted
This is part of a sample that, as a whole, favours compounds with a hit. Of some 83,000 tested, about 20% had one in any assay. Activity calls are given as the source filed them. The calls were made as follows: active = growth percent below 10; inactive = the rest.
Return exactly one item of active, inactive

Study these solved cases before continuing.
>>> assigned_category("Cc1cc2c3c(cccc3c1)C(=O)c1ccccc1-2")
"inactive"
>>> assigned_category("Cc1c(C(=O)O)nnn1-c1nccs1")
"inactive"
>>> assigned_category("N=c1sc(Cc2cc(Cl)ccc2Cl)cn1CC(=O)c1ccccc1")
"inactive"
>>> assigned_category("COc1ccc2c(c1OC)C(=O)O[C@H]2[C@H]1c2c(cc3c(c2OC)OCO3)CCN1C")
"inactive"
>>> assigned_category("C[C@@H]1CC[C@@]2(OC1)O[C@H]1C[C@H]3[C@@H]4CC=C5C[C@@H](O[C@@H]6O[C@H](CO)[C@@H](O[C@@H]7O[C@@H](CO)[C@H](O)[C@H]7O)[C@H](O)[C@H]6O[C@@H]6O[C@@H](C)[C@H](O)[C@@H](O)[C@H]6O)CC[C@]5(C)[C@H]4CC[C@]3(C)[C@H]1[C@@H]2C")
"active"
>>> assigned_category("Cc1ccc2c(n1)C(=O)C(Cl)=C(Nc1cccc(C(C)C)c1)C2=O")
"active"
>>> assigned_category("COc1ccc(C2CC(c3cccc(Nc4ccnc5cc(Cl)ccc45)c3)=NN2c2ccccc2)cc1 (stereo not given)")
"inactive"
>>> assigned_category("O=[N+]([O-])C1=C(c2ccccc2)SC=C(c2ccccc2)S1")
"inactive"
>>> assigned_category("CC(=O)OC[C@H]1O[C@H](OC(C)=O)[C@H](NC(=O)/C=C/CCl)[C@@H](OC(C)=O)[C@@H]1OC(C)=O")
"inactive"
>>> assigned_category("COc1ccc(/C=N/C2=C(C#N)C(c3cccc(Cl)c3)c3c(ccc4ccccc34)O2)cc1 (stereo not given)")
"active"

**Q:** Kindly provide the recorded test outcome for the following compound: "COc1ccc(S(=O)(=O)N2CCCCC2)cc1NC(=O)c1[nH]c(C)c2c1CCCCC2=O"
**A:** active

**Q:** "C=C(C)[C@@H]1CC[C@]2(C(=O)OCCOCCOCC[P+](c3ccccc3)(c3ccccc3)c3ccccc3)CC[C@]3(C)[C@H](CC[C@@H]4[C@@]5(C)CC[C@H](OC(C)=O)C(C)(C)[C@@H]5CC[C@]43C)[C@@H]12" , same question.
**A:** active

###

Test system: MDA-MB-468 breast
Method summary: NCI-60 one-dose screen, 48 h
Recorded conditions: 10 µM unless noted
The panel holds about 83,000 compounds, 20% with a hit somewhere; the sample as a whole holds those more often. The source made the active and inactive calls. The calls were made as follows: active = growth percent below 10; inactive = the rest.
Return exactly one item of 1.0 for active, 0.0 for inactive

Study these solved cases before continuing.
>>> assigned_category("O=C(NC1C(O)OC(CO)C(O)C1O)NS(=O)(=O)c1ccc(Cl)cc1 (stereo not drawn)")
0.0
>>> assigned_category("COc1cc(CN(c2ccc(Cl)cc2)C2OC(=O)c3ccccc32)cc(OC)c1OC (stereo not drawn)")
0.0
>>> assigned_category("CC(=O)c1ccc(Nc2nccc(-c3ccc4ccccc4c3)n2)cc1")
0.0
>>> assigned_category("COCCOCCOCc1n(Cc2ccc3ccccc3c2)c2ccccc2[n+]1Cc1ccc2ccccc2c1")
1.0
>>> assigned_category("CS(=O)(=O)Nc1ccc(-c2nn(-c3ccc(S(C)(=O)=O)cc3)cc2/C=C/C(=O)c2ccc(NC(=O)CO[N+](=O)[O-])cc2)cc1")
0.0

**Q:** Kindly provide the recorded test outcome for the following compound: "COc1cc(-c2c(C#N)c(-c3cccs3)nc3c2c(-c2ccccc2)nn3-c2ccccc2)ccc1O"
**A:** 0.0

**Q:** "Nc1cc(Br)cc2c1[nH]c(=O)c1ccccc12" , same question.
**A:** 1.0

**Q:** "COc1ccc2[nH]cc(-c3csc4nc(-c5ccccc5)cn34)c2c1" , same question.
**A:** 0.0

**Q:** "COc1cc(OC)cc(C(=O)C[n+]2cccc3cc[nH]c32)c1" , same question.
**A:** 0.0

**Q:** "CS(=O)(=O)c1ccc(-c2nn(-c3ccccc3)cc2/C=C/C(=O)c2ccc(Br)cc2)cc1" , same question.
**A:** 0.0

**Q:** "COc1c2c(cc3c1C(=O)N[C@@H]1[C@@H](O)[C@@H](O)[C@H](O)C[C@@H]31)OCCO2" , same question.
**A:** 0.0

**Q:** "CCOC(=O)c1ccc2c(c1)nc(-c1ccc(OCc3ccccc3)c(OC)c1)n2-c1cc(C(C)(C)C)[nH]n1" , same question.
**A:** 0.0

**Q:** CC1(C)CC(=O)C2=C(C1)N(c1ccc(OC(F)(F)F)cc1)C(N)=C(C#N)C2c1ccc(Cl)cc1 (stereo not drawn) , same question.
**A:** 0.0
